Taken from patent US20120202690A1.

Exercise: state measured pest or weed control at 1000 g/ha for each of the molecules provided.
System: Amaranthus retroflexus (AMARE)
experiment.description: Pre-emergence biological efficacy, glasshouse, 1000 g/ha, evaluated after 13 days (100=total damage to plant; 0=no damage to plant)
Type: in vivo
condition.summary: Amaranthus retroflexus, 312 h, rate 1,000 g/ha, read-out: Percentage damage caused to weed species, pre-emergence, AMARE
Record the value in %, omitting the unit from your answer.

Exercise: Write down the reported pest or weed control at 1000 g/ha (system: Amaranthus retroflexus (AMARE)) of Cc1cc2c(C(=O)O)nc(-c3ccc(Cl)c(F)c3)nc2n1Cc1ccco1 [Compound 11-21]
Key: 0

Exercise: Write down the reported pest or weed control at 1000 g/ha (system: Amaranthus retroflexus (AMARE)) of COCCOCCOC(=O)c1nc(-c2ccc(Cl)c(OC)c2F)cc2[nH]cc(C)c12 [Compound 22-85]
Key: 100

Exercise: Write down the reported pest or weed control at 1000 g/ha (system: Amaranthus retroflexus (AMARE)) of COc1c(Cl)ccc(-c2nc3c(c(C(=O)O)n2)NC(c2ccccc2)C(c2ccccc2)N3)c1F (centres unmarked) [Compound 91-203]
Key: 0

Exercise: Write down the reported pest or weed control at 1000 g/ha (system: Amaranthus retroflexus (AMARE)) of O=C(O)c1nc(-c2ccc(Cl)c(F)c2)nc2c1ccn2Cc1ccccc1 [Compound 6-17]
Key: 0

Exercise: Write down the reported pest or weed control at 1000 g/ha (system: Amaranthus retroflexus (AMARE)) of COC(=O)c1nc(-c2ccc(Cl)c(OC)c2F)cc2c1c(C)cn2S(=O)(=O)c1ccc(C)cc1 [Compound 40-64]
Key: 0

Exercise: Write down the reported pest or weed control at 1000 g/ha (system: Amaranthus retroflexus (AMARE)) of COc1c(Cl)ccc(-c2cc3[nH]cc(C)c3c(C(=O)OCc3ccco3)n2)c1F [Compound 22-87]
Key: 20

Exercise: Write down the reported pest or weed control at 1000 g/ha (system: Amaranthus retroflexus (AMARE)) of COC(=O)c1nc(C2CC2)nc2[nH]c(C)cc12 [Compound 1-6]
Key: 0

Exercise: Write down the reported pest or weed control at 1000 g/ha (system: Amaranthus retroflexus (AMARE)) of COC(=O)c1nc(-c2ccc(Cl)c(OC)c2F)cc2c1c(C)cn2C(=O)C(C)(C)C [Compound 37-64]
Key: 0

* * *

Tested on: Echinochloa crus-galli (ECHCG)
experiment.description: Pre-emergence biological efficacy, glasshouse, 1000 g/ha, evaluated after 13 days (100=total damage to plant; 0=no damage to plant)
Format: in vivo
condition.summary: Echinochloa crus-galli, 312 h, rate 1,000 g/ha, read-out: Percentage damage caused to weed species, pre-emergence, ECHCG
Exercise: state measured pest or weed control at 1000 g/ha for each of the compounds provided.
Record the value in %, omitting the unit from your answer.

Exercise: Write down the reported pest or weed control at 1000 g/ha (system: Echinochloa crus-galli (ECHCG)) of C=CCOC(=O)c1nc(-c2ccc(Cl)c(OC)c2F)nc2[nH]cc(C)c12
Key: 0

Exercise: Write down the reported pest or weed control at 1000 g/ha (system: Echinochloa crus-galli (ECHCG)) of COC(=O)c1nc(-c2ccc(Cl)c(OC)c2F)nc2c1c(C)cn2S(C)(=O)=O
Key: 0

Exercise: Write down the reported pest or weed control at 1000 g/ha (system: Echinochloa crus-galli (ECHCG)) of CCCCOCC(C)OC(=O)c1nc(-c2ccc(Cl)c(OC)c2F)nc2[nH]cc(C)c12 (stereo not shown)
Key: 10

Exercise: Write down the reported pest or weed control at 1000 g/ha (system: Echinochloa crus-galli (ECHCG)) of COc1ccc(Cn2cc(C)c3c(C(=O)O)nc(-c4ccc(Cl)c(OC)c4F)nc32)cc1
Key: 0
